Tested on: SK-MEL-5
Experiment: In vitro cytotoxicity, NCI screen: SK-MEL-5 (Melanoma)
Type: cell-based
Details: Homo sapiens; SK-MEL-5, Melanoma panel, NCI protocol; read-out: GI50 values (μM conc.)
Lab note - cut at 3 µM for GI50: Criterion met if strictly below, Criterion not met if not.

**Query** Check if GI50 falls below 3 µM for COc1ccc(/C=C/C(=O)c2cc(OC)c(OC)c(OC)c2)cc1OCC(=O)Nc1nc2ccc(OC(F)(F)F)cc2s1 .
**Result** Criterion met

**Query** Below 3 µM on GI50? Entry COc1ccc(/C=C\c2cc(OC)c(OC)c(OC)c2)cc1OCC(=O)Nc1nc2ccccc2s1
**Result** Criterion met

**Query** Would you kindly verify if GI50 of COc1ccc2nc(NC(=O)COc3cc(/C=C\c4cc(OC)c(OC)c(OC)c4)ccc3OC)sc2c1 is strictly less than 3 µM?
**Result** Criterion met

**Query** is_below(GI50, 3 µM) for COc1ccc(/C=C\c2cc(OC)c(OC)c(OC)c2)cc1OCC(=O)Nc1nc2ccc(C(F)(F)F)cc2s1 ?
**Result** Criterion met

**Query** Please check: GI50 for COc1ccc(/C=C\c2cc(OC)c(OC)c(OC)c2)cc1OCC(=O)Nc1nc2ccc(OC(F)(F)F)cc2s1 , strictly under 3 µM or not?
**Result** Criterion not met

**Query** Here's an entry: COc1ccc(/C=C\c2cc(OC)c(OC)c(OC)c2)cc1OCC(=O)Nc1nc2ccc(F)cc2s1 . Is its GI50 below 3 µM?
**Result** Criterion met

----------
Tested on: U251
Assay: In vitro cytotoxicity, NCI screen: U251 (CNS)
Format: cell-based
Conditions: Homo sapiens, U-251; U251, CNS panel, NCI protocol; read-out: GI50 values (μM conc.)
readout-label: GI50 (µM)
Please reply with the bare figure in µM and do not write the unit itself.

**Query** Entry COc1ccc(/C=C/C(=O)c2cc(OC)c(OC)c(OC)c2)cc1OCC(=O)Nc1nc2ccc(OC(F)(F)F)cc2s1 has what GI50?
**Result** 0.7

**Query** Query (compound): COc1ccc(/C=C\c2cc(OC)c(OC)c(OC)c2)cc1OCC(=O)Nc1nc2ccc(F)cc2s1 ; field requested: GI50
**Result** 4.33

**Query** Any idea what its GI50 is? The compound is COc1ccc2nc(NC(=O)COc3cc(/C=C\c4cc(OC)c(OC)c(OC)c4)ccc3OC)sc2c1
**Result** 4

**Query** For the compound COc1ccc(C2CC(c3cc(OC)c(OC)c(OC)c3)=NN2C(C)=O)cc1OCC(=O)Nc1nc2ccc(C(F)(F)F)cc2s1 (stereo not shown) [Compound 10i] , what GI50 is on record?
**Result** 3.08

**Query** What GI50 value was documented for this compound, COc1ccc(/C=C\c2cc(OC)c(OC)c(OC)c2)cc1OCC(=O)Nc1nc2ccc(C(F)(F)F)cc2s1 ?
**Result** 3.67

**Query** Endpoint output: GI50 of COc1ccc(/C=C\c2cc(OC)c(OC)c(OC)c2)cc1OCC(=O)Nc1nc2ccccc2s1 . Value?
**Result** 0.048

**Query** Using the record for COc1ccc(/C=C\c2cc(OC)c(OC)c(OC)c2)cc1OCC(=O)Nc1nc2ccc(OC(F)(F)F)cc2s1 , report its GI50.
**Result** 3.37

----------
Test system: HCT-116
Assay: In vitro cytotoxicity, NCI screen: HCT-116 (Colon)
Format: cell-based
Settings: Homo sapiens, read-out: GI50 values (μM conc.)
Rule: GI50 below 2 µM gives class 1. Equal to or above 2 µM gives class 0.

**Query** Please state whether GI50 is below 2 µM for COc1ccc(/C=C\c2cc(OC)c(OC)c(OC)c2)cc1OCC(=O)Nc1nc2ccc(C(F)(F)F)cc2s1
**Result** class 0

**Query** Lab log: compare recorded GI50 with 2 µM; is it strictly lower for COc1ccc2nc(NC(=O)COc3cc(/C=C\c4cc(OC)c(OC)c(OC)c4)ccc3OC)sc2c1 ?
**Result** class 0

**Query** Please indicate whether the reported GI50 of COc1ccc(C2CC(c3cc(OC)c(OC)c(OC)c3)=NN2C(C)=O)cc1OCC(=O)Nc1nc2ccc(C(F)(F)F)cc2s1 (stereo not shown) [Compound 10i] is strictly below 2 µM.
**Result** class 0

**Query** is_below(GI50, 2 µM) for COc1ccc(/C=C\c2cc(OC)c(OC)c(OC)c2)cc1OCC(=O)Nc1nc2ccc(F)cc2s1 ?
**Result** class 0

**Query** GI50 under 2 µM? Item: COc1ccc(/C=C\c2cc(OC)c(OC)c(OC)c2)cc1OCC(=O)Nc1nc2ccccc2s1
**Result** class 1

**Query** Is the reported GI50 for COc1ccc(/C=C/C(=O)c2cc(OC)c(OC)c(OC)c2)cc1OCC(=O)Nc1nc2ccc(OC(F)(F)F)cc2s1 strictly below 2 µM?
**Result** class 1

**Query** Quick check: GI50 of COc1ccc(/C=C\c2cc(OC)c(OC)c(OC)c2)cc1OCC(=O)Nc1nc2ccc(OC(F)(F)F)cc2s1 under 2 µM?
**Result** class 0

----------
Test system: A498
Experiment: In vitro cytotoxicity, NCI screen: A498 (Renal)
Format: cell-based
Settings: Homo sapiens; A498, Renal panel, NCI protocol; read-out: GI50 values (μM conc.)
Labelling: GI50 reported below 4 µM becomes yes (1); at or above becomes no (0).

**Query** Could you please tell me whether GI50 recorded for COc1ccc(C2CC(c3cc(OC)c(OC)c(OC)c3)=NN2C(C)=O)cc1OCC(=O)Nc1nc2ccc(C(F)(F)F)cc2s1 (stereo not shown) [Compound 10i] is less than 4 µM?
**Result** yes (1)

**Query** Is GI50 strictly under 4 µM for the entry COc1ccc(/C=C\c2cc(OC)c(OC)c(OC)c2)cc1OCC(=O)Nc1nc2ccc(F)cc2s1 [Compound 8e] ?
**Result** no (0)

**Query** # strict comparison: is reported GI50 < 4 µM? input = COc1ccc(/C=C\c2cc(OC)c(OC)c(OC)c2)cc1OCC(=O)Nc1nc2ccc(C(F)(F)F)cc2s1 [Compound 8i]
**Result** yes (1)

**Query** Strictly below 4 µM in GI50? COc1ccc2nc(NC(=O)COc3cc(/C=C\c4cc(OC)c(OC)c(OC)c4)ccc3OC)sc2c1 [Compound 8g]
**Result** yes (1)

**Query** I'd appreciate it if you could check whether COc1ccc(/C=C\c2cc(OC)c(OC)c(OC)c2)cc1OCC(=O)Nc1nc2ccc(OC(F)(F)F)cc2s1 [Compound 8j] has GI50 smaller than 4 µM.
**Result** yes (1)

**Query** Say whether its GI50 is strictly beneath 4 µM. Entry: COc1ccc(/C=C\c2cc(OC)c(OC)c(OC)c2)cc1OCC(=O)Nc1nc2ccccc2s1 [Compound 8a]
**Result** yes (1)

**Query** Hello, I'm reviewing records and need to know if GI50 of COc1ccc(/C=C/C(=O)c2cc(OC)c(OC)c(OC)c2)cc1OCC(=O)Nc1nc2ccc(OC(F)(F)F)cc2s1 [Compound 9j] is below 4 µM. Could you check?
**Result** no (0)

----------
For each of the molecules below, state its log10 of GI50.
Tested on: COLO-205
Assay: In vitro cytotoxicity, NCI screen: COLO-205 (Colon)
Format: cell-based
Conditions: Homo sapiens; COLO-205, Colon panel, NCI protocol; read-out: GI50 values (μM conc.)
Log10 applied to GI50; unit prior to transform: µM.

**Query** Can you look up log10 of GI50 on COLO-205 for COc1ccc2nc(NC(=O)COc3cc(/C=C\c4cc(OC)c(OC)c(OC)c4)ccc3OC)sc2c1 ?
**Result** 0.59

**Query** What value of log10 of GI50 on COLO-205 does COc1ccc(/C=C\c2cc(OC)c(OC)c(OC)c2)cc1OCC(=O)Nc1nc2ccc(OC(F)(F)F)cc2s1 have?
**Result** 1.64

**Query** Field: log10 of GI50 (COLO-205). Entry: COc1ccc(/C=C\c2cc(OC)c(OC)c(OC)c2)cc1OCC(=O)Nc1nc2ccc(C(F)(F)F)cc2s1
**Result** 1.23

**Query** # query: log10 of GI50 | item COc1ccc(/C=C\c2cc(OC)c(OC)c(OC)c2)cc1OCC(=O)Nc1nc2ccc(F)cc2s1 | system: COLO-205
**Result** 0.89

**Query** # value lookup — system COLO-205, readout log10 of GI50, item COc1ccc(/C=C/C(=O)c2cc(OC)c(OC)c(OC)c2)cc1OCC(=O)Nc1nc2ccc(OC(F)(F)F)cc2s1
**Result** 0.80

**Query** Find log10 of GI50 (COLO-205) for the entry COc1ccc(C2CC(c3cc(OC)c(OC)c(OC)c3)=NN2C(C)=O)cc1OCC(=O)Nc1nc2ccc(C(F)(F)F)cc2s1 (stereo not shown) [Compound 10i]
**Result** 0.60

**Query** Could you share what log10 of GI50 was measured for COc1ccc(/C=C\c2cc(OC)c(OC)c(OC)c2)cc1OCC(=O)Nc1nc2ccccc2s1 , tested on COLO-205?
**Result** 0.45

FYI, the data here is from patent US9102638B2.
